target: DNA gyrase (Escherichia coli, UniProt P0AES4+P0AES6); test: Inhibition of Escherichia coli DNA gyrase incubated for 80 mins by Transcreener ADP2 FI assay
pIC50: −log10 of the molar value.
measurement kind: pIC50

# compound, measured on, pIC50
data = [
    ("CC(C)(N)COc1cc(C#N)c2c(c1)CC(CNCCC1CN(c3ccc4c(n3)NC(=O)CO4)C(=O)O1)C2 (centres undefined)", "DNA gyrase (Escherichia coli, UniProt P0AES4+P0AES6)", 7.80),
]

1: O=C(CN1CCC1)Nc1cc(F)c2c(c1)CC(CNCCC1CN(c3cnc4c(n3)NC(=O)CO4)C(=O)O1)C2 (centres undefined)
2: NC1(COc2cc(F)c3c(c2)CC(CNCCC2CN(c4ccc5c(n4)NC(=O)CO5)C(=O)O2)C3)CC1 (centres undefined)
3: N#Cc1cc(OC2CNC2)cc2c1CC(CNCCC1CN(c3ccc4c(n3)NC(=O)CO4)C(=O)O1)C2 (centres undefined)
Arrange the 3 compounds by rising pIC50, starting with the smallest. Return value: ordered labels per request. 2, 3, 1
(2: 7.00, 3: 7.29, 1: 7.85)

* * *

system: Pseudomonas aeruginosa; test: Antibacterial activity against Pseudomonas aeruginosa ATCC 27853 assessed as inhibition in bacterial growth incubated for 20 to 24 hrs by CLSI based broth microdilution method; type: functional; settings: time 20-24 hrs
measurement kind: MIC (µg/mL)

Example results:
# molecule, measured on, reading
rows = [
    ("N#Cc1cc(OC2CNC2)cc2c1CC(CNCCC1CN(c3ccc4c(n3)NC(=O)CO4)C(=O)O1)C2 (centres undefined)", "Pseudomonas aeruginosa", 0.125),
    ("N#Cc1cc(OCC2(N)CC2)cc2c1CC(CNCCC1CN(c3ccc4c(n3)NC(=O)CO4)C(=O)O1)C2 (centres undefined)", "Pseudomonas aeruginosa", 0.25),
    ("O=C(CN1CCC1)Nc1cc(F)c2c(c1)CC(CNCCC1CN(c3cnc4c(n3)NC(=O)CO4)C(=O)O1)C2 (centres undefined)", "Pseudomonas aeruginosa", 0.25),
    ("NC1(COc2cc(F)c3c(c2)CC(CNCCC2CN(c4ccc5c(n4)NC(=O)CO5)C(=O)O2)C3)CC1 (centres undefined)", "Pseudomonas aeruginosa", 0.5),
    ("N#Cc1cc(OCCN)cc2c1CC(CNCCC1CN(c3ccc4c(n3)NC(=O)CO4)C(=O)O1)C2 (centres undefined)", "Pseudomonas aeruginosa", 0.125),
]

P: C[C@@H](N)COc1cc(F)c2c(c1)CC(CN1CCC3(CC1)CN(c1cnc4c(n1)NC(=O)CO4)C(=O)O3)C2 (some centres undefined)
Q: N#Cc1cccc2c1CC(CNCCC1CN(c3ccc4c(n3)NC(=O)CO4)C(=O)O1)C2 (centres undefined)
Looking at recorded values for MIC, does P or Q come in lower? Refer to your chosen item by its label in the answer. P

A: CN(C)CC(=O)Nc1cc(F)c2c(c1)CC(CNCCC1CN(c3cnc4c(n3)NC(=O)CO4)C(=O)O1)C2 (centres undefined)
B: CN(C)C(C)(C)C(=O)Nc1cc(F)c2c(c1)CC(CNCCC1CN(c3cnc4c(n3)NC(=O)CO4)C(=O)O1)C2 (centres undefined)
C: CC(N)COc1cc(F)c2c(c1)CC(CCOCC1CN(c3cnc4c(n3)NC(=O)CO4)C(=O)O1)C2 (centres undefined)
D: CN(C(=O)CN1CCC1)c1cc(F)c2c(c1)CC(CNCCC1CN(c3cnc4c(n3)NC(=O)CO4)C(=O)O1)C2 (centres undefined)
E: NC1(COc2cc(F)c3c(c2)CC(CNCCC2CN(c4cnc5c(n4)NC(=O)CO5)C(=O)O2)C3)CC1 (centres undefined)
Arrange the 5 molecules by rising MIC, starting with the smallest. Return value: ordered labels per request. E, A, B, C, D
